For each entry below, report its EC50 value.
Target: T1, full-length human SIRPαV1 D→N on Expi-CHO cells (human, UniProt P78324 31-504)
T1 construct: the entry already carries the change (PDDV to PDNV)
T1 sequence (P78324 31-504 D131N): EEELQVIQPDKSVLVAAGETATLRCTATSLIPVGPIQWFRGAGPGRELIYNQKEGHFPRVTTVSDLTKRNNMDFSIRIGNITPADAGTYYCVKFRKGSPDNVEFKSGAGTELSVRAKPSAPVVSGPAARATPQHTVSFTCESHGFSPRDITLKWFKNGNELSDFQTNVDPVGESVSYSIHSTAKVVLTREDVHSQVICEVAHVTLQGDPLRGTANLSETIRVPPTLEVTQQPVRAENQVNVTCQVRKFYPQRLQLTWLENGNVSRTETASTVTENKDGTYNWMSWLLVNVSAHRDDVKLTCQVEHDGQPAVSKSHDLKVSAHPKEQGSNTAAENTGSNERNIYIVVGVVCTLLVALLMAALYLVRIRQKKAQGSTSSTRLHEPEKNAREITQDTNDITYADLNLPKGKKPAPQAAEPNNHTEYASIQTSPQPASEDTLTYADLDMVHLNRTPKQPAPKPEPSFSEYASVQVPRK
Assay: flow cytometry, Expi-CHO cells

Input line: Supply reported EC50 belonging to this binder: Antibody C (antibody, human IgG1, kappa, L234A L235A, V domains shown) VH: EVQLVESGGGLVQPGGSLRLSCAASGFTFSSYDMHWVRQATGKGLEWVSVIGIAGDTYYPGSVKGRFTISRENAKNSLYLQMNSLRVGDTAVYYCARGGSWDDAFDIWGQGTMVTVSS VL: DIQMTQSPSSLSASIGDKVTITCRASQDINNYLAWFQQKPGKAPKSLIYTASSLQSGVPSKFSGSGSGTDFTLTISSLQPEDFATYYCQQYVSYPYTFGQGTKLEIKR
Output line: 2.7 nM

Input line: Supply reported EC50 belonging to this binder: Antibody E22 (antibody, human IgG1, kappa, L234A L235A, V domains shown) VH: QVQLQESGPGLVKPSETLSLTCTVSGGSIRDYYWSWIRQPPGKGLEWIGFIYYNGRTFYQSSLKSRVTISLDTSKNQFSLKMTSVTAADTAVYYCARVRAYSGIGLDGTDVWGQGTTVTVSS VL: DIVMTQSPLSLPVTPGEPASISCRSSQSLLYSTGYTYLDWYLQRPGQSPQLLIYGGSSRASGVPDRFSGSGSGTDFTLKISRVEAEDVGVFYCGQALQTPLTFGQGTKVEIKR
Output line: 0.8 nM

Input line: Supply reported EC50 belonging to this binder: Anti-SIRPα antibody KWAR23 (antibody, V domains shown) VH: EVQLQQSGAELVKPGASVKLSCTASGFNIKDYYIHWVQQRTEQGLEWIGRIDPEDGETKYAPKFQDKATITADTSSNTAYLHLSSLTSEDTAVYYCARWGAYWGQGTLVTVSS VL: QIVLTQSPAIMSASPGEKVTLTCSASSSVSSSYLYWYQQKPGSSPKLWIYSTSNLASGVPARFSGSGSGTSYSLTISSMEAEDAASYFCHQWSSYPRTFGAGTKLELK
Output line: 0.2 nM

Input line: Supply reported EC50 belonging to this binder: Antibody D (antibody, human IgG1, kappa, L234A L235A, V domains shown) VH: EVQLVESGGGLVQPGGSLRLSCAASGFTFSSFDMHWVRQPTGKGLEWVSTIGIAGDTYFPGSVKGRFTISRENAKNSLYLQMNSLRAGDTAVYYCARGGNWDDALDIWGQGTMVTVSS VL: DIQMTQSPSSLSASVGDRVTITCRASQDINNYLAWFQQKPGKAPKSLIYTASSLQSGVPSKFSGSGSGTDFTLTISSLQPEDFATYYCQQYNTYPYTFGQGTKLEIKR
Output line: 9.6 nM
